Data provenance: ChEMBL document CHEMBL1154821

# Test Details: Cytotoxicity against human CRL2796 cells assessed as inhibition of formazan formation at 100 uM on day 4 by measuring absorbance at 430 nm
# Type: cell-based
Measured Property: Activity

CC1=C(C#N)c2nc(N)c(C#N)c(C)c2/C1=C/c1ccc(-c2ccccc2)cc1: Not Active
CC1=C(C#N)c2nc(N)c(C#N)c(C)c2/C1=C/c1ccc([N+](=O)[O-])cc1: Not Active
CC1=C(C#N)c2nc(N)c(C#N)c(C)c2/C1=C/c1ccnc2ccccc12: Not Active
